// provenance: paper PMC2911241

Exercise: for every item that follows, state its recorded Cell cycle percentage G2/M.
system: K562 cells; assay: Cell cycle analysis by flow cytometry; assay type: cell-based, human; conditions: K562 cells treated at the IC50; calculated using living cells; mean ± SE
One number for each entry, in %.

In the examples that follow, each entry is paired with its recorded Cell cycle percentage G2/M.
>>> reported_measurement("COc1ccc2c(NC(C)=O)c(C(=O)c3cc(OC)c(OC)c(OC)c3)oc2c1")
37
>>> reported_measurement("COc1ccc2c(NC(=O)CCl)c(C(=O)c3cc(OC)c(OC)c(OC)c3)oc2c1")
33

For each of the items listed, what is its Cell cycle percentage G2/M?
1. COc1ccc2c(NC(=O)CBr)c(C(=O)c3cc(OC)c(OC)c(OC)c3)oc2c1
2. COc1ccc2c(NC(=O)CI)c(C(=O)c3cc(OC)c(OC)c(OC)c3)oc2c1

(A)
1. 67
2. 21

---

test system: tubulin; assay: Inhibition of [3H]colchicine binding to tubulin; settings: tubulin, colchicine and tested compound at 1, 5 and 1 μM
Exercise: for every item that follows, state its recorded Colchicine binding % ±SD (inhibition of [3H]colchicine binding).

In the examples that follow, each entry is paired with its recorded Colchicine binding % ±SD (inhibition of [3H]colchicine binding).
>>> reported_measurement("COc1ccc2c(NC(=O)CCl)c(C(=O)c3cc(OC)c(OC)c(OC)c3)oc2c1 [Compound 3j]")
"47±5%"
>>> reported_measurement("COc1ccc2c(NC(=O)CBr)c(C(=O)c3cc(OC)c(OC)c(OC)c3)oc2c1 [Compound 3k]")
"49±2%"
>>> reported_measurement("COc1ccc2c(NC(=O)CI)c(C(=O)c3cc(OC)c(OC)c(OC)c3)oc2c1 [Compound 3l]")
"54±1%"

Here's the next entry for you.
(Q) Which measured Colchicine binding % ±SD (inhibition of [3H]colchicine binding) belongs to COc1ccc2c(NC(C)=O)c(C(=O)c3cc(OC)c(OC)c(OC)c3)oc2c1 [Compound 3i] , tested on tubulin?
(A) 51±7%

---

Exercise: for every item that follows, state its recorded Cell cycle percentage G0/G1.
test system: K562 cells; experiment: Cell cycle analysis by flow cytometry; assay type: cell-based, human; details: K562 cells treated at the IC50; calculated using living cells; mean ± SE
One number for each entry, in %.

In the examples that follow, each entry is paired with its recorded Cell cycle percentage G0/G1.
>>> reported_measurement("COc1ccc2c(NC(=O)CI)c(C(=O)c3cc(OC)c(OC)c(OC)c3)oc2c1")
23
>>> reported_measurement("COc1ccc2c(NC(=O)CBr)c(C(=O)c3cc(OC)c(OC)c(OC)c3)oc2c1")
6
>>> reported_measurement("COc1ccc2c(NC(=O)CCl)c(C(=O)c3cc(OC)c(OC)c(OC)c3)oc2c1")
23

(Q) Which measured Cell cycle percentage G0/G1 belongs to COc1ccc2c(NC(C)=O)c(C(=O)c3cc(OC)c(OC)c(OC)c3)oc2c1 , tested on K562 cells?
(A) 27
